Assay: Aqueous solubility assay
Type: physicochemical
Conditions: PBS pH 7.4, 4 h, room temperature; mean of 3; maximal concentration evaluated 200, 500 or 1000 μM
I'd be grateful if you could share measured Determined concentration Mean for these entries.
Numbers only here, please. The scale is µM.

Measured Determined concentration Mean of `C=CCOc1ccc(C[C@@H]2NC(=O)[C@@H]3CCCN3[C@H](C(=O)NC(C)(C)C)[C@H](C)NC(=O)[C@H]([C@@H](C)O)NC(=O)[C@H](CC(=O)O)NC(=O)[C@H](CC(C)C)NC2=O)cc1` : 834.5

Measured Determined concentration Mean of `CC(C)C[C@@H]1NC(=O)c2cccc(c2)CNC(=O)[C@@H]2CCCN2[C@H](C(=O)NC(C)(C)C)[C@H](C)NC(=O)[C@H]([C@@H](C)O)NC(=O)[C@H](CC(=O)O)NC1=O` : 942.9

Measured Determined concentration Mean of `CSCC[C@@H]1NC(=O)[C@@H]2CCCN2[C@H](C(=O)NC(C)(C)C)[C@H](C)NC(=O)[C@H]([C@@H](C)O)NC(=O)[C@H](CC(=O)O)NC(=O)[C@H](CC(C)C)NC1=O` : 183.1

Measured Determined concentration Mean of `CC(C)C[C@@H]1NC(=O)[C@H](CCCN)NC(=O)[C@@H]2CCCN2[C@H](C(=O)NC(C)(C)C)[C@H](C)NC(=O)[C@H]([C@@H](C)O)NC(=O)[C@H](CC(=O)O)NC1=O` : 218.6

Measured Determined concentration Mean of `CC(C)C[C@@H]1NC(=O)[C@@H](Cc2ccncc2)NC(=O)[C@@H]2CCCN2[C@H](C(=O)NC(C)(C)C)[C@H](C)NC(=O)[C@H]([C@@H](C)O)NC(=O)[C@H](CC(=O)O)NC1=O` : 994.5

====

I'd be grateful if you could share measured Selectivity ELISA for these entries.
Target: integrin α4β7 (Homo sapiens, UniProt P13612+P26010)
Sequence (P13612 34-977 limits assumed): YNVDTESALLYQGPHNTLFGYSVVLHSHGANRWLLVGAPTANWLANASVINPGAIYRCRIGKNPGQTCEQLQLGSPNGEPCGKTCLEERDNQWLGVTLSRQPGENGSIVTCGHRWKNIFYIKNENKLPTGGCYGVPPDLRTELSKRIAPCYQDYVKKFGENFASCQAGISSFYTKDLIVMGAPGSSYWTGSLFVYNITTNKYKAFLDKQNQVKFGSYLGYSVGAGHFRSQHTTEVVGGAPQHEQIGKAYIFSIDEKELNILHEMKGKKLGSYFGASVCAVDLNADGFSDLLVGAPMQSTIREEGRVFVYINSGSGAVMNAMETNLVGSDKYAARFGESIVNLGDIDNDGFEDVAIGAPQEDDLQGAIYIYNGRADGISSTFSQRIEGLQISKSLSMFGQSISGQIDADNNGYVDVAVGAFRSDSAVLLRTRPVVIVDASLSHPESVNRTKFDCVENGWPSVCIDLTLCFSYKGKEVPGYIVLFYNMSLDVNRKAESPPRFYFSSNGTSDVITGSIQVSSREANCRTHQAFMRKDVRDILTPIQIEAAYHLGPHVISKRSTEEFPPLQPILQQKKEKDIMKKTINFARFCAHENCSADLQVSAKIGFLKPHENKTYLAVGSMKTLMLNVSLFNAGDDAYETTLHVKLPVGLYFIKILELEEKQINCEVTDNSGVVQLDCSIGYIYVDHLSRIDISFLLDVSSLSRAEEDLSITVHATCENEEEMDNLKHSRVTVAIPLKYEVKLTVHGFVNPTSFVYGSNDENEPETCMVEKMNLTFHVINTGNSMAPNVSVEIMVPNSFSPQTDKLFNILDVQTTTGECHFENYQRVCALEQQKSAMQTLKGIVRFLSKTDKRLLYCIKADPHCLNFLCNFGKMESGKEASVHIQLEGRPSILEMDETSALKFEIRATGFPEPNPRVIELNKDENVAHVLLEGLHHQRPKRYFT
Sequence (P26010 20-723 limits assumed): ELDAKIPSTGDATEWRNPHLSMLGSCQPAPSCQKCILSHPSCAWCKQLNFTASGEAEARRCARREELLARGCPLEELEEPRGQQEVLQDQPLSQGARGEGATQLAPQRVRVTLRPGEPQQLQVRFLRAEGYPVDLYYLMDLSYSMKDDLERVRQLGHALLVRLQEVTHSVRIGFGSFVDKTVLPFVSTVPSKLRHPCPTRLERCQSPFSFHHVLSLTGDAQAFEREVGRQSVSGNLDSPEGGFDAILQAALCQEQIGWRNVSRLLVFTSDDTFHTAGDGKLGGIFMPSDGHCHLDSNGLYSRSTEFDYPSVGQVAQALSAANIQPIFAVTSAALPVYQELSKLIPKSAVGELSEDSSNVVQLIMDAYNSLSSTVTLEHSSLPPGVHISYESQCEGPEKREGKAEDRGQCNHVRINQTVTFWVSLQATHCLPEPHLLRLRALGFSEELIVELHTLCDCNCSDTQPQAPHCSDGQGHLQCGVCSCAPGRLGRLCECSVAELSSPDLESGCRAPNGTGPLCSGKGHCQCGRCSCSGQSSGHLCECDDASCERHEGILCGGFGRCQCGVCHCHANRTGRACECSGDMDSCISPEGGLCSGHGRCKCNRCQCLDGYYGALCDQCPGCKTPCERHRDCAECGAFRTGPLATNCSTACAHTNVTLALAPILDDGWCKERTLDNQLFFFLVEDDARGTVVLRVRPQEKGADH
Experiment: Integrin α4β7—MAdCAM-1 competition assay (ELISA)
Type: binding
Settings: ratio a4b1 ELISA IC50 / a4b7 ELISA IC50
Lab note: record the figure alone, no unit after it.

Measured Selectivity ELISA of `CC[C@H](C)[C@@H]1NC(=O)[C@H](CC(=O)O)NC(=O)[C@H](CC(C)C)NC(=O)[C@@H](CCCCN)N(C)C(=O)[C@H](Cc2ccc(O)cc2)NC(=O)[C@@H]2CCCN2[C@H](C(=O)NC(C)(C)C)[C@H](C)NC1=O` : 22.8

Measured Selectivity ELISA of `CC(C)C[C@@H]1NC(=O)C[C@H](CCCCN)NC(=O)CN(Cc2ccccc2)C(=O)[C@@H]2CCCN2[C@H](C(=O)NC(C)(C)C)[C@H](C)NC(=O)[C@H]([C@@H](C)O)NC(=O)[C@H](CC(=O)O)NC1=O` : 94.8

====

I'd be grateful if you could share measured Selectivity ELISA for these entries.
Molecular target: integrin α4β7 (Homo sapiens, UniProt P13612+P26010)
Assay: Integrin α4β7—MAdCAM-1 competition assay (ELISA)
Format: binding
Details: ratio a4b1 ELISA IC50 / a4b7 ELISA IC50
Lab note: record the figure alone, no unit after it.

Measured Selectivity ELISA of `CC(C)C[C@@H]1NC(=O)C[C@H](CCCCN)NC[C@H](Cc2ccc(CN)cc2)NC(=O)[C@@H]2CCCN2[C@H](C(=O)NC(C)(C)C)[C@H](C)NC(=O)[C@H]([C@@H](C)O)NC(=O)[C@H](CC(=O)O)NC1=O` : 16.5

Measured Selectivity ELISA of `CC(C)C[C@@H]1NC(=O)[C@H](Cc2csc(-c3ccncc3)n2)NC(=O)[C@@H]2CCCN2[C@H](C(=O)NC(C)(C)C)[C@H](C)NC(=O)[C@H]([C@@H](C)O)NC(=O)[C@H](CC(=O)O)NC1=O` : 2.5

Measured Selectivity ELISA of `CC(C)C[C@@H]1NC(=O)[C@@H](CCCCN)NC(=O)[C@H](Cc2cccc3ccccc23)NC(=O)[C@@H]2CCCN2[C@H](C(=O)NC(C)(C)C)[C@H](C)NC(=O)[C@H]([C@@H](C)O)NC(=O)[C@H](CC(=O)O)NC1=O` : 19.1

Measured Selectivity ELISA of `CC[C@H](C)[C@@H]1NC(=O)[C@H](CC(=O)O)NC(=O)[C@H](CC(C)C)NC(=O)[C@H](Cc2c[nH]c3ccccc23)NC(=O)[C@@H]2CCCN2[C@H](C(=O)NC(C)(C)C)[C@H](C)NC1=O` : 0.9

# credit: patent US11072616B2
